- Subject of test: T1, huCDH19(44-772), Flag-tagged, on 293T cells (human, UniProt Q9H159 44-772)
- T1 construct: Expressed with native leader (1-43) followed by a Flag tag; leader left out; also called Hu EC1-5
- Assay notes: FACS, transfected 293T
Observation type: binding result

hu anti-<huCDH19> 2G6 (1-477)(R17G,D61E,D72E,K94N) VH::huIgG1z / 2G6 (1-234)(C42S,D110E) VL::huLLC-C1 (Ab ID 14039) (antibody, V domains shown, Engineered variant of 2G6) VH: QVQLVESGGGVVQPGGSLRLSCAASGFTFSSYGMHWVRQAPGKGLEWVAFIWYEGSNKYYAESVKDRFTISRDNSKNTLYLQMNSLRAEDTAVYYCARRAGIIGTIGYYYGMDVWGQGTTVTVSS VL: SYELTQPPSVSVSPGQTASITCSGDRLGEKYTSWYQQRPGQSPLLVIYQDTKRPSGIPERFSGSNSGNTATLTISGTQAMDEADYYCQAWESSTVVFGGGTKLTVLG : binds
hu anti-<huCDH19> 4B10 (1-471)(R17G,D61E,D72E) VH::huIgG1z / 4B10 (1-236)(H45Q,A90T) VL::huKLC (Ab ID 14055) (antibody, V domains shown, Engineered variant of 4B10) VH: QVQLVESGGGVVQPGGSLRLSCAASGFTFSSYDMHWVRQAPGKGLEWVAVISYEGTNEYYAESVKGRFTISRDTSKNTLYLQMNSLRAEDTAVYYCARERYFDWSFDYWGQGTLVSVSS VL: EIVLTQSPGTLSLSPGERATLSCRASQSVSNTYLAWYQQRPGQAPRLLIYGASSRATGIPDRFSGSGSGTDFTLTISSLEPEDFAVYYCQQYSNSWTFGQGTKVEIKR : binds
hu anti-<huCDH19> 4A9 VH::huIgG1z / 4A9 (1-239)(F47L) VL::huLLC-C1 (Ab ID 14056) (antibody, V domains shown, Engineered variant of 4A9) VH: QVQLQESGPGLVKPSETLSLTCTVSGGSISGYYWSWIRQPPGKGLEWFAYFSYSGSTNYNPSLKSRVTLSVDTSKNQFSLKLSSVTAADTAVYYCARNWAFHFDFWGQGTLVTVSS VL: QSVLTQPPSVSGAPGQRVTISCTGSSSNIGTGYAVHWYQQLPGTAPKLLIYGNNNRPSGVPDRFSGSKSGTSASLAITGLQAEDEADYYCQSYDSRLSGWVFGGGTKLTVLG : binds
